# TARGET_OR_TEST_SYSTEM: Cytochrome P450 2C9 (Homo sapiens) (UniProt P11712)
# Sequence (P11712 whole entry, looked up): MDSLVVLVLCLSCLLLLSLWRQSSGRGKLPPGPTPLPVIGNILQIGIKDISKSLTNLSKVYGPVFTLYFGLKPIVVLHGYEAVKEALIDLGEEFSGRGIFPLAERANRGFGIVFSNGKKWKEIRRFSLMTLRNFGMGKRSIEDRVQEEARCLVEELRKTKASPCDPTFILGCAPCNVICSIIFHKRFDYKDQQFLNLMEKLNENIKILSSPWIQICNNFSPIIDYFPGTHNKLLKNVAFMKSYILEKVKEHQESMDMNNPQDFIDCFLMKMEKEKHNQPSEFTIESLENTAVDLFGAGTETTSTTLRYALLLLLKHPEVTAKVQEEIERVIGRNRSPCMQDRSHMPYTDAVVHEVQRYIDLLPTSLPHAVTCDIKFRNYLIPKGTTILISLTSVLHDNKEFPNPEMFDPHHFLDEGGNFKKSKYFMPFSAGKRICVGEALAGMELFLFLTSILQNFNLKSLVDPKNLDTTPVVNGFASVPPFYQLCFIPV
# TEST_SUMMARY: Cytochrome panel assay with activity outcomes
# TEST_SETTINGS: recombinant CYP, pro-luciferin dealkylation, luminescence, p450-cyp2c9; series mostly up to 57.1 µM
The campaign covered roughly 16,000 compounds. About 4,000 (25%) were called active. Inconclusive results (about 26%) are left out. Calls follow the shape of the dose curve; as a rule, active = well fitted curve in the direction sought with a large enough effect; inconclusive = small, poorly fitted or top-dose-only effect, or effect the other way; inactive = no such curve, though single readings can be large or run the other way. These entries were drawn from the full list.
Write down the outcome that applies. Available outcomes: active, inactive

{"columns": ["COMPOUND", "CLASS_NAME"],
 "data": [
  ["Cc1[nH]nc(Nc2ccccc2)c1[N+](=O)[O-]", "active"],
  ["CCOC(=O)[C@@]12C[C@@H]1/C(=N/O)c1ccccc1O2", "inactive"],
  ["CNc1ncnc2ccc(-c3cccc(OC)c3)cc12", "active"],
  ["C/C(=C\\c1ccco1)C1C(C#N)=C(N)Oc2n[nH]c(-c3ccccc3)c21 (stereo not drawn)", "active"],
  ["O=C(NC(=S)Nc1nc(-c2ccc(Br)cc2)cs1)c1cccnc1", "inactive"],
  ["COc1ccc2c(Cl)c(-c3nnco3)sc2c1", "inactive"],
  ["O=C(c1cnccn1)N1CCC2(CCCN(C(c3ccccc3)c3ccccc3)C2)CC1", "active"],
  ["Cc1cc(=O)n2c3ccccc3n(CC(O)CN3CCCCC3)c2c1C#N (stereo not drawn)", "inactive"],
  ["COc1ccc(N2C(=O)NC3CC2(C)Oc2ccccc23)cc1OC (stereo not drawn)", "inactive"],
  ["COc1ccc(/C=C/C(=O)c2ccoc2)cc1", "active"]
]}

Ask | Returns: the outcome recorded for "O=C(c1ccc(F)cc1)C1CCN(C(=S)Nc2ccccc2)CC1" in this assay.
Reply | active

Ask | Returns: the outcome recorded for "Cc1nn(C(=O)c2cccnc2)c(C)c1Sc1ccc(Br)cc1" in this assay.
Reply | active
